Catalogue of molecules with associated w/w loading (weight gain after drug loading and washing)
experiment: Gravimetric loading of porous silicon p+ membrane with beneficial organic substance; type: physicochemical; settings: mesoporous p+ silicon membrane, porosity 63%; melt, heated solution or rotary evaporation loading
Structures can show the parent of a compound that is named as a salt.

Cc1c(C)c2c(c(C)c1O)CC[C@@](C)(CCC[C@H](C)CCC[C@H](C)CCCC(C)C)O2	37 % w/w
CC(C)Cc1ccc(C(C)C(=O)O)cc1 (stereo not drawn) [S-(+)-Ibuprofen]	40.67 % w/w
CCCCCCCCCCCC(=O)O	42.57 % w/w
c1ccc([C@H]2CN3CCSC3=N2)cc1 [Levamisole HCl]	32.93 % w/w
CS(=O)(=O)OCCCCOS(C)(=O)=O	37.54 % w/w
CC1=CC(=O)c2c(O)cccc2C1=O	34.68 % w/w
CCN(CC)CCOC(=O)c1ccc(N)cc1	35.33 % w/w

// switching to the query molecule
Would you kindly share the measured w/w loading (weight gain after drug loading and washing) for O=C(O)CCCc1ccc(N(CCCl)CCCl)cc1 ? 39.19 % w/w

---

assay: Gravimetric loading of porous silicon p+ membrane with beneficial organic substance; assay type: physicochemical; conditions: mesoporous p+ silicon membrane, porosity 63%; melt, heated solution or rotary evaporation loading
Where a name gives a salt, the structure may show the parent alone.
endpoint: w/w loading (weight gain after drug loading and washing)
Answer format: number, then unit.

Consider the following illustrative entries.
CC(=O)O[C@]1(C(C)=O)CC[C@H]2[C@@H]3C[C@H](C)C4=CC(=O)CC[C@]4(C)[C@H]3CC[C@@]21C [Medroxyprogesteron Acetate]	19.81 % w/w
O=P1(N(CCCl)CCCl)NCCCO1 (stereo not shown) [Cyclophosohamide]	44.4 % w/w
CC(=O)O[C@H]1C(=O)[C@@]2(C)[C@H]([C@H](OC(=O)c3ccccc3)[C@]3(O)C[C@H](OC(=O)[C@H](O)[C@@H](NC(=O)c4ccccc4)c4ccccc4)C(C)=C1C3(C)C)[C@]1(OC(C)=O)CO[C@@H]1C[C@@H]2O	16.71 % w/w

// switching to the query compound
Would you kindly share the measured w/w loading (weight gain after drug loading and washing) for CN(C)CCC=C1c2ccccc2CCc2ccccc21 [Amitriptyline HCl] ? 35.07 % w/w

---

assay: Gravimetric loading of porous silicon p+ membrane with beneficial organic substance; assay type: physicochemical; conditions: mesoporous p+ silicon membrane, porosity 63%
Structures can show the parent of a compound that is named as a salt.
Catalogue of compounds with associated pore volume available occupied by the drug, given as value/drug density

Consider the following illustrative entries.
CCCCCCCCCCCC(=O)O	55.62 /drug density %
c1ccc([C@H]2CN3CCSC3=N2)cc1 [Levamisole HCl]	64 /drug density %
CC1=CC(=O)c2c(O)cccc2C1=O	98.50 /drug density %
O=P1(N(CCCl)CCCl)NCCCO1 (stereo not shown) [Cyclophosohamide]	104 /drug density %

Would you kindly share the measured pore volume available occupied by the drug, given as value/drug density for CS(=O)(=O)OCCCCOS(C)(=O)=O ? 78.53 /drug density %

Would you kindly share the measured pore volume available occupied by the drug, given as value/drug density for O=C(O)CCCc1ccc(N(CCCl)CCCl)cc1 ? 88.40 /drug density %

Would you kindly share the measured pore volume available occupied by the drug, given as value/drug density for CN(C)CCC=C1c2ccccc2CCc2ccccc21 [Amitriptyline HCl] ? 74.07 /drug density %
